protocolDescription: ATG_Sox_CIS: Attagene CIS-FACTORIAL HepG2 Assay for human SRY-box transcription factor (SOX) (AID 2282960)
setupConditions: HepG2 Attagene cis-factorial SOX reporter, mRNA; actives raise or lower the signal
Calls of active or inactive are those of the source. The calls were made as follows: active = hit-call score of the fitted dose curve at least 0.9, where 1 is the maximum; inactive = score below 0.9.
Write down the outcome that applies. Available outcomes: active, inactive

# count of solved cases: 8
IN: How did this test come out for CCCCCCCCCC=CCC1CC(=O)OC1=O (stereo not drawn) ?
OUT: inactive

IN: How did this test come out for O=C(O)CN(CCCN(CC(=O)O)CC(=O)O)CC(=O)O ?
OUT: inactive

IN: How did this test come out for CCCCCC(C)OC(=O)COc1ccc(Cl)c2cccnc12 (stereo not drawn) ?
OUT: inactive

IN: How did this test come out for CCCCCc1ccc(O)cc1 ?
OUT: inactive

IN: How did this test come out for CCC(=O)C=Cc1ccc(OC)cc1 ?
OUT: active

IN: How did this test come out for CCCCCCCCCCCC(=O)O ?
OUT: inactive

IN: How did this test come out for CS(=O)(=O)c1ccc([C@@H](CC2CCCC2)C(=O)Nc2cnccn2)cc1Cl ?
OUT: active

IN: How did this test come out for O=C(Nc1ccc(Cl)c(Cl)c1)c1cc(Cl)cc(Cl)c1O ?
OUT: inactive

Others:
IN: How did this test come out for CC(C)(C)c1ccc(CCC=O)cc1 ?
OUT: inactive

IN: How did this test come out for Brc1ccc(Oc2ccc(Br)cc2Br)cc1 ?
OUT: inactive

IN: How did this test come out for OCC(F)(F)C(F)(F)C(F)(F)C(F)(F)C(F)(F)C(F)(F)C(F)(F)C(F)(F)C(F)(F)C(F)(F)C(F)(F)F ?
OUT: inactive

IN: How did this test come out for Clc1ccc2c(Cl)ccnc2c1 ?
OUT: inactive

IN: How did this test come out for CNNCc1ccc(C(=O)NC(C)C)cc1 ?
OUT: inactive

====

protocolDescription: BSK_4H_Eotaxin3: BioMAP Diversity Plus: 4H Assay for Eotaxin 3 Biomarker Activity (AID 2283000);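 as to outcome: CCL26 protein level quantified by ELISA in parallel with SRB cytotoxicity check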
setupConditions: primary human endothelial cells (HUVEC); actives raise or lower the signal
Activity calls are given as the source filed them. Rule for the calls: active = hit-call score of the fitted dose curve at least 0.9, where 1 is the maximum; inactive = score below 0.9.
Write down the outcome that applies. Available outcomes: Y for active, N for inactive

IN: How did this test come out for OCC(F)(F)C(F)(F)C(F)(F)C(F)(F)C(F)(F)C(F)(F)C(F)(F)C(F)(F)C(F)(F)C(F)(F)C(F)(F)F ?
OUT: N

IN: How did this test come out for Cc1cccc2c1ccc1ccccc12 ?
OUT: N

IN: How did this test come out for CC[N+](CC)(CC)Cc1ccccc1 ?
OUT: N

Others:
IN: How did this test come out for CCC(C)c1ccccc1O (centres undefined) ?
OUT: N

IN: How did this test come out for CCCCCCCCCCCCCCC ?
OUT: N

IN: How did this test come out for CN(CCO)S(=O)(=O)C(F)(F)C(F)(F)C(F)(F)C(F)(F)C(F)(F)C(F)(F)C(F)(F)C(F)(F)F ?
OUT: N

IN: How did this test come out for CCCCCc1ccc(O)cc1 ?
OUT: Y

IN: How did this test come out for C=CC(C)(CCC=C(C)C)OC(C)=O (centres undefined) ?
OUT: Y

IN: How did this test come out for O=C(NO)c1ccccc1 ?
OUT: N

IN: How did this test come out for COCN(COC)c1nc(N(COC)COC)nc(N(COC)COC)n1 ?
OUT: N

IN: How did this test come out for O=C1OC2(c3ccccc31)c1cc(I)c(O)c(I)c1Oc1c2cc(I)c(O)c1I ?
OUT: Y

IN: How did this test come out for OCC(CO)(CBr)CBr ?
OUT: N

IN: How did this test come out for O=C(O)CCC(F)(F)C(F)(F)C(F)(F)C(F)(F)C(F)(F)F ?
OUT: N

IN: How did this test come out for C=CC(=O)OCCC(F)(F)C(F)(F)C(F)(F)C(F)(F)C(F)(F)C(F)(F)C(F)(F)C(F)(F)F ?
OUT: N

IN: How did this test come out for O=C1NS(=O)(=O)c2ccccc21 ?
OUT: N

IN: How did this test come out for CN(C)c1ccc(C(=C2C=CC(=[N+](C)C)C=C2)c2ccccc2)cc1 ?
OUT: Y

IN: How did this test come out for COc1cccc(O)c1 ?
OUT: N
